system: oat, wild (wild oat, Avena fatua); test: Test A preemergence, wild oat; type: in vivo; settings: 125 g ai/ha, 0 to 100 scale, 10 days
This listing pairs compounds with measured Plant response rating, Oat, Wild.
Respond with the number and no other words.

Solved cases below.
1. Cc1cc(C)c(N2CCC(OC3CCCC3)C2=O)cc1NS(=O)(=O)C(F)(F)F (stereo not drawn) [Compound 6] :: 90
2. Cc1cc(C)c(N(COC(=O)C(C)(C)C)S(=O)(=O)C(F)(F)F)cc1N1CCC(OC2CCCC2)C1=O (stereo not drawn) [Compound 5] :: 40
3. Cc1cc(C)c(N(COC(=O)C(C)(C)C)S(=O)(=O)C(F)(F)F)cc1N1CCC(OC2CC2)C1=O (stereo not drawn) [Compound 7] :: 100
4. Cc1cc(C)c(N2CCC(OC3CCC3)C2=O)cc1NS(=O)(=O)C(F)(F)F (stereo not drawn) [Compound 4] :: 100
5. Cc1cc(C)c(N2CCC(OC3CC3)C2=O)cc1NS(=O)(=O)C(F)(F)F (stereo not drawn) [Compound 3] :: 100

Moving on to the next compound.
stdin: Would you mind telling me what Plant response rating, Oat, Wild value was observed for Cc1cc(C)c(N(COC(=O)C(C)(C)C)S(=O)(=O)C(F)(F)F)cc1N1CCC(OC2CCC2)C1=O (stereo not drawn) [Compound 8] ?
stdout: 70
